System: soybean
assay_method_text: Test C pre-/postemergence herbicide test
Format: in vivo, Glycine max
test_conditions: 62 g ai/ha; preemergence; scale 0 to 100
# Plant response rating, Soybean per entry
Please give the numeric answer without any surrounding text.

Solved cases (3 shown):
1. CCNC(=O)c1ccc(F)c(NC(=O)c2cc(C3(C)CC3)nn2CC)c1 ... 0
2. CCN(CC)C(=O)c1cccc(NC(=O)c2cc(C(C)(C)C)nn2C)n1 ... 0
3. CCN1N=C(C(C)(C)C)CC1C(=O)Nc1cc(C(=O)N2CC=CC2)ccc1F (racemic) ... 0

Simply: CCNC(=O)c1ccc(F)c(NC(=O)c2cn(C(C)(C)C)nc2CC)c1 , soybean, Plant response rating, Soybean = 30

Simply: C=CCNC(=O)c1cccc(NC(=O)c2nn(C(C)C)nc2CC)c1 , soybean, Plant response rating, Soybean = 100

Simply: CCn1nc(C2(C)CC2)cc1C(=O)Nc1cc(C(=O)N2CC=CC2)ccc1F , soybean, Plant response rating, Soybean = 15

Simply: CCc1nn(C(C)C)nc1C(=O)Nc1cccc(C(=O)N(C)CC)c1 , soybean, Plant response rating, Soybean = 90

Simply: CCN(CC)C(=O)c1ccnc(NC(=O)c2cc(C(C)(C)C)nn2CC)c1 , soybean, Plant response rating, Soybean = 0

Simply: CCc1nc(C(C)(C)C)sc1C(=O)Nc1cccc(C(=O)NCC2CC2)c1 , soybean, Plant response rating, Soybean = 0

###

Tested on: ducksalad
assay_method_text: Test B flooded paddy test
Type: in vivo, Heteranthera limosa
test_conditions: 1000 g ai/ha, visual rating, scale 0 to 100 (0 no effect, 100 complete control), 13 to 15 days
reported_metric: Ducksalad plant response rating
Please give the numeric answer without any surrounding text.

Solved cases (5 shown):
1. CCNC(=O)c1cccc(NC(=O)c2nn(C(C)(C)C)cc2C(F)(F)F)c1 [Compound 170] ... 0
2. Cc1nn(C(C)(C)C)cc1C(=O)Nc1cccc(OC(C)C)c1 [Compound 189] ... 70
3. CCn1nc(C(C)(C)C)cc1C(=O)Nc1cc(C(=O)NCC2CC2)ccn1 [Compound 155] ... 100
4. CCNC(=O)c1cccc(NC(=O)c2cc(C(C)(C)C)nn2CC)n1 [Compound 144] ... 90
5. CCc1nc(C(C)(C)C)sc1C(=O)Nc1cccc(C(=O)N(CC)CC)n1 [Compound 214] ... 30

Entry CC(=O)c1cccc(NC(=O)c2cc(C(C)(C)C)nn2CC(F)(F)F)c1 [Compound 126] , Ducksalad plant response rating reported as 80

Entry CCc1nc(C(C)(C)C)sc1C(=O)Nc1cc(C(=O)N(C)C)ccc1F [Compound 225] , Ducksalad plant response rating reported as 90

Entry CCNC(=O)c1ccc(F)c(NC(=O)c2sc(C(C)(C)C)nc2CC)c1 [Compound 226] , Ducksalad plant response rating reported as 70

Entry CC(=NO)c1cccc(NC(=O)c2cn(C(C)C)nc2C)c1 [Compound 180] , Ducksalad plant response rating reported as 20

Entry CCn1nc(C(C)(C)C)cc1C(=O)Nc1cccc(C(=O)NCCF)c1 [Compound 45] , Ducksalad plant response rating reported as 80

Entry CCc1nc(C(C)(C)C)sc1C(=O)Nc1cccc(C(=O)N(CC)CC)c1 [Compound 205] , Ducksalad plant response rating reported as 50

###

# Pigweed plant response rating per entry
Tested on: redroot pigweed
assay_method_text: Test A pre-/postemergence herbicide test
Format: in vivo, Amaranthus retroflexus
test_conditions: Preemergence, 500 g ai/ha; visual rating, 0 to 100 scale (0 no effect, 100 complete control)
Please give the numeric answer without any surrounding text.

Solved cases (3 shown):
1. CC(=NO)c1cccc(NC(=O)c2cc(C(F)(F)F)nn2C)c1 ... 80
2. CN1Cc2c(NC(=O)c3cc(C(C)(C)C)nn3C)cccc2C1=O ... 10
3. Cn1nc(C(C)(C)C)cc1C(=O)Nc1cccc2c1CNC2=O ... 30

Entry CCn1nc(C(C)(C)C)cc1C(=O)Nc1cc(C(=O)OC(C)(C)C)ccc1F , Pigweed plant response rating reported as 0

Entry C=Cn1nc(C(C)(C)C)cc1C(=O)Nc1cccc(C(=O)N(CC)CC)c1 , Pigweed plant response rating reported as 100

Entry CCn1nc(C(C)(C)C)cc1C(=O)Nc1cccc(C(=O)OCCF)c1C , Pigweed plant response rating reported as 0

###

Tested on: giant foxtail
assay_method_text: Test A pre-/postemergence herbicide test
Type: in vivo, Setaria faberi
test_conditions: Postemergence, 2000 g ai/ha; 0 to 100 scale, 0 no effect, 100 complete control
reported_metric: Plant response rating, Foxtail, Giant
Please give the numeric answer without any surrounding text.

1) CCn1nc(C(C)(C)C)cc1C(=O)Nc1cccc2c1CCN(C1CCCC1)C2=O [Compound 66] ... 0

Entry CCNC(=O)c1ccc(F)c(NC(=O)C2CC(C(C)(C)C)=NN2CC)c1 (racemic) [Compound 269] , Plant response rating, Foxtail, Giant reported as 65

Entry CCN(CC)C(=O)c1ccnc(NC(=O)c2cc(C(C)(C)C)nn2CC)c1 [Compound 153] , Plant response rating, Foxtail, Giant reported as 90

Entry CCN(C)C(=O)c1ccc(F)c(NC(=O)c2cc(C(C)(C)C)nn2CC)n1 [Compound 280] , Plant response rating, Foxtail, Giant reported as 0

Entry C#CCNC(=O)c1cncc(NC(=O)c2cc(C(C)(C)C)nn2CC)n1 [Compound 289] , Plant response rating, Foxtail, Giant reported as 70

Entry CCCCOc1cccc(NC(=O)c2cc(C(C)(C)C)nn2CC)c1 [Compound 137] , Plant response rating, Foxtail, Giant reported as 30

Entry CCn1nc(C(C)(C)C)cc1C(=O)Nc1nc(C(=O)N2CC=CC2)ccc1F [Compound 281] , Plant response rating, Foxtail, Giant reported as 25

Entry CCn1nc(C(C)(C)C)cc1C(=O)Nc1cncc(C(=O)N2CC=CC2)n1 [Compound 290] , Plant response rating, Foxtail, Giant reported as 70

Entry CCOC(=O)c1cc(NC(=O)c2cc(C(C)(C)C)nn2CC)ccc1F [Compound 89] , Plant response rating, Foxtail, Giant reported as 20

Entry CCc1nc(C(C)(C)C)sc1C(=O)Nc1cccc(C(=O)NC(C)(C)C)n1 [Compound 216] , Plant response rating, Foxtail, Giant reported as 20

Entry CCn1nc(C(C)(C)C)cc1C(=O)Nc1cc(C(=O)NC(C)(C)C)ccn1 [Compound 154] , Plant response rating, Foxtail, Giant reported as 20

Entry Cn1nc(C(C)(C)C)cc1C(=O)Nc1cccc2c1CNC2=O [Compound 53] , Plant response rating, Foxtail, Giant reported as 0

Entry CCn1nc(C(C)(C)C)cc1C(=O)Nc1cccc(C(=O)NCCF)c1 [Compound 45] , Plant response rating, Foxtail, Giant reported as 95

Entry CCOc1cccc(NC(=O)c2cc(C(C)(C)C)nn2CC)c1 [Compound 136] , Plant response rating, Foxtail, Giant reported as 50

Entry CCn1nc(C(C)(C)C)cc1C(=O)Nc1ccnc(C(=O)N2CC=CC2)c1 [Compound 282] , Plant response rating, Foxtail, Giant reported as 25

###

Tested on: barnyardgrass
assay_method_text: Test A pre-/postemergence herbicide test
Format: in vivo, Echinochloa crus-galli
test_conditions: Postemergence, 500 g ai/ha; 0 to 100 scale, 0 no effect, 100 complete control
Checkbox rule: Barnyardgrass plant response rating lower than 20 = 1 (yes); Barnyardgrass plant response rating not lower than 20 = 0 (no).

Completed entries (count: 5):
1. CCc1nc(C(C)(C)C)sc1C(=O)Nc1cccc(C(=O)N(CC)CC)n1 [Compound 214] ... 1 (yes)
2. CCn1nc(C(C)(C)C)cc1C(=O)Nc1nc(C(=O)N2CC=CC2)ccc1F [Compound 281] ... 0 (no)
3. CCn1nc(C(C)(C)C)cc1C(=O)Nc1cncc(C(=O)N2CC=CC2)n1 [Compound 290] ... 0 (no)
4. CCOc1cccc(NC(=O)c2cn(C(C)(C)C)nc2C)c1 [Compound 190] ... 1 (yes)
5. CCn1nc(C(C)(C)C)cc1C(=O)Nc1cccc(OCCCF)c1 [Compound 138] ... 1 (yes)

## Task Identify whether the molecule C=CCNC(=O)c1cccc(NC(=O)c2cc(C(C)(C)C)nn2C)n1 [Compound 318] records Barnyardgrass plant response rating below 20.
## Result 0 (no)

## Task Identify whether the molecule CCc1nc(C(C)(C)C)sc1C(=O)Nc1cccc(C(=O)NCCF)c1 [Compound 209] records Barnyardgrass plant response rating below 20.
## Result 0 (no)

###

Tested on: morningglory
assay_method_text: Test B pre-/postemergence herbicide test
Assay type: in vivo, Ipomoea coccinea
test_conditions: preemergence, 125 g ai/ha; 0 to 100 scale, 0 is no effect, 100 is complete control
reported_metric: Plant response rating, Morningglory

Solved cases (3 shown):
1. CCNC(=O)c1cccc(NC(=O)c2cc(C(C)(C)C)nn2CC)n1 ... 100
2. CCn1nc(C(C)(C)C)cc1C(=O)Nc1cccc(C(=O)NCCF)c1 ... 10
3. CC(C)(C)c1cc(C(=O)Nc2cccc(SC(F)(F)F)c2)n(CCF)n1 ... 10

Simply: C#CCNC(=O)c1cccc(NC(=O)c2cc(C(C)(C)C)nn2CC)n1 , morningglory, Plant response rating, Morningglory = 0

Simply: CCNC(=O)c1cccc(NC(=O)c2cc(C(C)(C)C)nn2CCF)c1 , morningglory, Plant response rating, Morningglory = 10

Simply: CCn1nc(C(C)(C)C)cc1C(=O)Nc1cccc(C(=O)NC(C)C)c1 , morningglory, Plant response rating, Morningglory = 0
